# assay.target: recombinant human pancreatic GLK (Homo sapiens)
# Construct: 6-His (N)
# Sequence (P35557 whole entry): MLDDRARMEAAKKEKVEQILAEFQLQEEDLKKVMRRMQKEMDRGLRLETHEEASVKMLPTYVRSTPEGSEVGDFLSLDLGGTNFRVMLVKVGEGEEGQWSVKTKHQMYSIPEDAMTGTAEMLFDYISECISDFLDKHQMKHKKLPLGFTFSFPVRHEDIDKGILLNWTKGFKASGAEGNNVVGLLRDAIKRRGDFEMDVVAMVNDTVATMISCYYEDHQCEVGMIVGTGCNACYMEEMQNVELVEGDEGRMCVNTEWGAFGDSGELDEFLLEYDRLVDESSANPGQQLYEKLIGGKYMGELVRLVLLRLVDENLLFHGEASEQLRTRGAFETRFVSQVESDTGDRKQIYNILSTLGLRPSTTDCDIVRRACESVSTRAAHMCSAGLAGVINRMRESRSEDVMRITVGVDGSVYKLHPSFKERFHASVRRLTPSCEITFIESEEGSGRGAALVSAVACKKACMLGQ
# measurement.notes: Enzymatic activity: activation of glucokinase in the absence of GLKRP
# test.parameters: G-6-P dehydrogenase NADP/NADPH coupled assay, OD 340 nm
Exercise: for every item that follows, state its recorded EC50.
One number for each entry, in nM.

Below, each entry is followed by its recorded EC50 result.
Record C[C@@H](COC(F)F)Oc1cc(Oc2ccc(S(C)(=O)=O)nc2)cc(C(=O)Nc2ccn(C)n2)c1 has recombinant human pancreatic GLK (Homo sapiens) EC50 equal to 77

Record C[C@@H](COC(F)F)Oc1cc(Oc2cnc(C(=O)N(C)C)cn2)cc(C(=O)Nc2cc[nH]n2)c1 has recombinant human pancreatic GLK (Homo sapiens) EC50 equal to 65

Record C[C@@H](COC(F)F)Oc1cc(Oc2cnc(C(=O)N(C)C)cn2)cc(C(=O)Nc2ccn(C)n2)c1 has recombinant human pancreatic GLK (Homo sapiens) EC50 equal to 79

Record C[C@@H](COC(F)F)Oc1cc(Oc2ccc(S(C)(=O)=O)nc2)cc(C(=O)Nc2cc[nH]n2)c1 has recombinant human pancreatic GLK (Homo sapiens) EC50 equal to 33

Record Cc1cnc(NC(=O)c2cc(Oc3cnc(C(=O)N(C)C)cn3)cc(O[C@@H](C)COC(F)F)c2)cn1 has recombinant human pancreatic GLK (Homo sapiens) EC50 equal to 55

Proceed to the following item.
Record Cc1cnc(NC(=O)c2cc(Oc3ccc(S(C)(=O)=O)nc3)cc(O[C@@H](C)COC(F)F)c2)cn1 has recombinant human pancreatic GLK (Homo sapiens) EC50 equal to 69

Source listed as patent US7964725B2.
